# target_of_assay: ZIKV E Domain III ([..]), polyhistidine-AviTag, produced in HEK-293-6E cells (ZIKV)
# test_description: ELISA on coated ZIKV EDIII
# condition: remark: other sources report otherwise
recorded_metric: EC50 (µg/mL)
Answers are plain numbers, in µg/mL.

Z055 (MEX84_p4-61) (antibody, V domains shown) VH: EVQLVQSGAEVKKPGASVKVSCKASGYTFSGYYIHWLRQAPGQGLEWMGWINSNSGGADSGPRFHGRVTMTRDTSINTAYLELTNLRSDDTAVYYCARRTYYDTRFPYWYFDLWGRGTLVTVSS VL: AIRMTQSPSSLSASVGDRVTITCRASQDIGSYLNWYQQKPGKAPNVLISAASTLQSGVPSRISGIGSGTDFTLTISSLQPEDFATYYCQQSLSAPYTFGQGTKLEIK : 1.88
Z056 (MEX84_p2-94) (antibody, V domains shown) VH: EVQLVQSGAEVKKPGASVKVSCKASGNTFMGYYFHWVRQAPGQGLEWMGWINPNSGHANIAQTFQGRVTMTRDPSITTAYMELSRLRSDDTAVFYCARGGMLGQLWALDNWGQGTLVTVSS VL: DIQMTQSPSTLSASVGDRVTITCRASQSISHWLAWYQQRPGEAPKLLIYQASTLESGVPSRFSGSGSGTEFTLSISSLQPDDFATYYCQQYQSSPYTFGQGTKLEIK : 0.982
Z052 (BRA138_62) (antibody, V domains shown) VH: QVQLQESGPGLVKPSQTLSLTCTVSGGSITGGVYYWNWIRHHPGKGLEWIGYMFYSGDTDYNPSLRSRVTISGDTSKNKFSLNLNSVTAADTAVYYCARAGFDYGSPVSAFDIWGQGTLVTVSS VL: EIVLTQSPATLSLSPGERATLSCRASQSVSSTYLVWYQQKPGQAPRLLIYGASSRATGIPDRFSGSGSGTDFTLTISRLEPEDFAVYFCQQYAHSPRGYTFGQGTKLEIK : 0.0131

Okay, next one:
-- ask Identify the reported EC50 for the following entry. Z051 (BRA138_59) (antibody, V domains shown) VH: QVQLQESGPGLVKPSQTLSLTCTVSGVSISSGGYYYSWFRQLPGKGLEWIGHIYYTGNTHYNPSLRSRLTISVDTSKNQFSLKLSSVTAADTARYYCARAWCEYAAYCWFDPWGRGTLVTVSS VL: EIVLTQSPGTLSLSPGERATLSCRASQSVTSSYLAWYQHKPGQAPRLLIYGASSRAPGIPDRFSGSGSGTDFTLTISRLEPEDFAVYWCQQYGRSPFTFGQGTKLEIK
-- reply 1.86
